target: recombinant SARS-CoV-2 spike S1 RBD (R319-F541), C-terminal 6-His (SARS-CoV-2, UniProt P0DTC2 319-541); assay: flow cytometry, blocking of binding to hACE-2 cells
QUANTITY: percent blocking
Please provide the amount together with its unit, number first.

Enquiry: Quick one: percent blocking of 1035740 (antibody, V domains shown) VH: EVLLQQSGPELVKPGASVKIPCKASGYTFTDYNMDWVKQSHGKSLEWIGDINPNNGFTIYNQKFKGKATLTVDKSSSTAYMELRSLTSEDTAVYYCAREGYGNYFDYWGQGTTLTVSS VL: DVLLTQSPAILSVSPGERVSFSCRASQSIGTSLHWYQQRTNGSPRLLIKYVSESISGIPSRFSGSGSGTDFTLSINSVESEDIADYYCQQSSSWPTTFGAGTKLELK ?
Return: 94.6%

Enquiry: Quick one: percent blocking of 1035709 (antibody, V domains shown) VH: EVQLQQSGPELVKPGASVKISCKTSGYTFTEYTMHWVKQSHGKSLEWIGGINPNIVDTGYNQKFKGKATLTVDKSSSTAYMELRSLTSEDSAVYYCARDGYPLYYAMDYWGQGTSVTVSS VL: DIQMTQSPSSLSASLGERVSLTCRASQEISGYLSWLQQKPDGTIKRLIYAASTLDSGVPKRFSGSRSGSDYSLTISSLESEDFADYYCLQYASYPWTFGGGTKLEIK ?
Return: 94.7%

Enquiry: Quick one: percent blocking of 1035433 (antibody, V domains shown) VH: QVQLQQSGPQLVRPGASVKISCKASGYSFTIYWMHWVQQRPGQGLEWIGMIDPSDSETRLNQKFKDKATLTVDKSSSTAYMQLSSPTSEDSAVYYCARRGDYNFDYWGQGTTLTVSS VL: DIVMTQAAPSVPATPGESVSISCRSSKSLLHSNGNTYLYWFLQRPGQSPQLLIFRMSNLASGVPDRFSGSGSGTAFTLRISRVEAEDVGVYYCMQHLEYPYTFGGGTKLEIK ?
Return: 93.7%

Enquiry: Quick one: percent blocking of 1035211 (antibody, V domains shown) VH: QVQLQQSGAELARPGASVKMSCKASGYTFTNYTMHWVKQRPGQGLEWIGYINPSSGYTNYNQKFKDKATLTADKSSSTAYMQLSSLTSEDSAVYYCARRNPLYAMDYWGQGTSVTVSS VL: DIKMTQSPSSMYASLGERVTITCKASQDINSYLNWFQQKPGKSPKTLIYRANRLVDGVPSRFSGSGSGQDYSLTISSLEFEDMGIYYCLQYDEFPYTFGGGTKLEIK ?
Return: 98.7%

Enquiry: Quick one: percent blocking of 1035419 (antibody, V domains shown) VH: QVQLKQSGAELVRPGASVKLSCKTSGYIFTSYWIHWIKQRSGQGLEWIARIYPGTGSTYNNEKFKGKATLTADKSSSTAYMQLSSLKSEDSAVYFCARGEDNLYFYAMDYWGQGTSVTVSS VL: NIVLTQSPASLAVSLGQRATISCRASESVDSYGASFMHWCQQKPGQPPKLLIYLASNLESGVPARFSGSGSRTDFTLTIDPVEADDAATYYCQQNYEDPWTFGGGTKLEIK ?
Return: 90.2%

Source of measurements: patent US20230408517A1
